Would you mind telling me the reported log10(IC50) of each entry?
experimental-target: human RORγ-LBD (Homo sapiens)
Construct: made in house; host or cells: E. coli (BL-21)
Sequence (P51449 262-518): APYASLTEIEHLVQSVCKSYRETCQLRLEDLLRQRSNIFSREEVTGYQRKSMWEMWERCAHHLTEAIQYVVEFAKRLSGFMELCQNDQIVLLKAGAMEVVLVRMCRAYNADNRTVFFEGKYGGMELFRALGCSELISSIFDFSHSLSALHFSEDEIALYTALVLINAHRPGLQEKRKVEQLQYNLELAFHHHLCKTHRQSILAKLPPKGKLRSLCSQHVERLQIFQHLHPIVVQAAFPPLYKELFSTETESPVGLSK
protocol-summary: ROR gamma coactivator peptide recruitment Alphascreen assay (RORγ-LBD binding to GRIP1 coactivator peptide)
Type: biochemical
run-parameters: 5 nM human RORγ-LBD, 30 nM 7-β-hydroxycholesterol, 50 nM biotinylated GRIP1 coactivator peptide, overnight incubation at room temperature; read-out: result (pIC50, RORγ coactivator peptide recruitment Alphascreen assay) (converted)
Remember, log10 of IC50, in nM.

A selection of reference data follows.
Cc1cc(Cl)c(C(=O)CN(Cc2cc(F)cc(F)c2)C(=O)c2cnn([C@H]3CC[C@@H](C(=O)O)CC3)c2C(F)(F)F)c(Cl)n1; 0.90
Cc1cc(F)c(C(=O)CN(C[C@@]2(C)CCCO2)C(=O)c2cnn([C@H]3CC[C@](C)(C(=O)O)CC3)c2C(F)(F)F)c(Cl)c1; 2.01
C[C@@H]1C[C@@H](n2ncc(C(=O)N(CC(=O)c3c(Cl)cccc3Cl)[C@H]3CCC34CCC4)c2C(F)(F)F)CC[C@@H]1C(=O)O; 0.12
CC(C)(CN(CC(=O)c1c(Cl)cncc1Cl)C(=O)c1cnn([C@H]2CC[C@](C)(C(=O)O)CC2)c1C(F)(F)F)C(F)(F)F; 0.51
CC1(C)[C@@H]2C[C@H](N(CC(=O)c3c(Cl)cccc3Cl)C(=O)c3cnn([C@H]4C[C@@H](CC(=O)O)C4)c3C(F)(F)F)C[C@@H]21 [Example 859]; 0.78
CC(C)(C)CN(CC(=O)c1c(Cl)cncc1Cl)C(=O)c1cnn([C@H]2C[C@@H]3[C@H](C2)[C@@H]3C(=O)O)c1C(F)(F)F; 1.63
C[C@]1(C(=O)O)CC[C@H](n2ncc(C(=O)N3CC4(CC=CC4)C[C@@H]3Cc3c(Cl)cncc3Cl)c2C(F)(F)F)CC1; 1.54
C[C@H]1C[C@@H](n2ncc(C(=O)N(CC(=O)c3c(Cl)cccc3Cl)CC3CC(C)(C)C3)c2C(F)(F)F)CC[C@H]1C(=O)O; 1.14

Proceed to the following item.
Q) Request the reported log10(IC50) associated with `C[C@]1(C(=O)O)CC[C@H](n2ncc(C(=O)N(CC(=O)c3c(Cl)cccc3Cl)CC3(C(F)(F)F)CC3)c2C(F)(F)F)CC1`
A) 0.38
